Tested on: Alopecurus myosuroides (ALOMY)
Test: B1 Pre-emergence herbicidal activity
Format: in vivo
Set-up: key: 5=total damage to plant; 0=no damage to plant
Conditions: pre-emergence application, rate 1000 g/ha, evaluated after 13 days
PROPERTY LABEL: Pre-emergence herbicidal activity, ALOMY (damage score 0-5)
Give the figure only, with no unit attached.

Which Pre-emergence herbicidal activity, ALOMY (damage score 0-5) reading was recorded for the compound `CC(C)C(=O)N(C)c1ccc(-c2cncc(F)c2)nc1C(F)(F)F` ?
0

Thanks! And `CCC(=O)N(CCOC)c1ccc(-c2cncc(F)c2)nc1C(F)(F)F` ?
1

Thanks! And `CCC(=O)N(Cc1cnc(Cl)s1)c1ccc(-c2cncc(F)c2)nc1C(F)(F)F` ?
0

Thanks! And `O=C(Nc1ccc(-c2cncc(F)c2)nc1C(F)(F)F)c1cccnc1` ?
0

Thanks! And `CCC(=O)N(CC1CC1)c1ccc(-c2cncc(F)c2)nc1C(F)(F)F` ?
0

Thanks! And `CC(C)(C)C(=O)Nc1ccc(-c2cncc(F)c2)nc1C(F)(F)F` ?
0

Thanks! And `O=C(Nc1ccc(-c2cncc(F)c2)nc1C(F)(F)F)c1ccccn1` ?
0

Thanks! And `O=C(CC(F)(F)F)Nc1ccc(-c2cncc(F)c2)nc1C(F)(F)F` ?
0

Thanks! And `O=C(Nc1ccc(-c2cncc(F)c2)nc1C(F)(F)F)c1ccccc1` ?
2

Thanks! And `O=C(Nc1ccc(-c2cncnc2)nc1C(F)(F)F)c1ccccc1` ?
0

Thanks! And `CC(=O)Nc1ccc(-c2cncnc2)nc1C(F)(F)F` ?
0

Thanks! And `CCC(=O)N(CC=C(C)C)c1ccc(-c2cncc(F)c2)nc1C(F)(F)F` ?
0

Thanks! And `O=C(CCl)Nc1ccc(-c2cncc(F)c2)nc1C(F)(F)F` ?
0

Thanks! And `O=CNc1ccc(-c2cncc(F)c2)nc1C(F)(F)F` ?
1

Thanks! And `Cc1nc(-c2cncnc2)ccc1NC(=O)C(C)C` ?
0

Thanks! And `O=C(c1ccccc1)N(Cc1ccc(Cl)cc1)c1ccc(-c2cncc(F)c2)nc1C(F)(F)F` ?
0

Thanks! And `CC(C)C(=O)Nc1ccc(-c2cncc(C#N)c2)nc1C(F)(F)F` ?
0

Thanks! And `CCCC(=O)Nc1ccc(-c2cncc(F)c2)nc1C(F)(F)F` ?
0

Thanks! And `COCCN(C(=O)C(C)C)c1ccc(-c2cncc(F)c2)nc1C(F)(F)F` ?
0

---

Test system: Triticum aestivium (TRZAW)
Assay: B1 Pre-emergence herbicidal activity
Assay type: in vivo
Parameters: key: 5=total damage to plant; 0=no damage to plant
Conditions: pre-emergence application, rate 1000 g/ha, evaluated after 13 days
Provide the reported Pre-emergence herbicidal activity, TRAZW (damage score 0-5) of each item.
Give the figure only, with no unit attached.

Report Pre-emergence herbicidal activity, TRAZW (damage score 0-5) for CC(C)C(=O)Nc1ccc(-c2cncc(Cl)c2)nc1C(F)(F)F [Compound C12] tested on Triticum aestivium (TRZAW).
0

Thanks! And COCC(=O)N(Cc1ccc(Cl)cc1)c1ccc(-c2cncc(F)c2)nc1C(F)(F)F [Compound C82] ?
0

Thanks! And O=C(Nc1ccc(-c2cncc(F)c2)nc1C(F)(F)F)C1CCC1 [Compound C21] ?
0

Thanks! And Cc1nc(-c2cncc(F)c2)ccc1NC(=O)C(C)C [Compound C3] ?
0

Thanks! And CCC(=O)Nc1ccc(-c2cncc(F)c2)nc1C(F)(F)F [Compound C13] ?
0

Thanks! And CCC(=O)N(C)c1ccc(-c2cncc(F)c2)nc1C(F)(F)F [Compound C15] ?
0

Thanks! And O=C(O)CCC(=O)Nc1ccc(-c2cncc(F)c2)nc1C(F)(F)F [Compound C113] ?
0

Thanks! And O=C(Nc1ccc(-c2cncnc2)nc1C(F)(F)F)C(Cl)Cl [Compound C65] ?
0

Thanks! And Cc1nc(-c2cncc(F)c2)ccc1N(C(=O)C(C)C)C(=O)C(C)C [Compound C1] ?
1

Thanks! And CC(C)C(=O)Nc1ccc(-c2cncnc2)nc1C(F)(F)F [Compound C8] ?
0

Thanks! And O=C(Nc1ccc(-c2cncc(F)c2)nc1C(F)(F)F)c1cc(F)c(F)cc1F [Compound C33] ?
0

Thanks! And O=C(Nc1ccc(-c2cncnc2)nc1C(F)(F)F)C1CC1 [Compound C109] ?
0

Thanks! And CCC(=O)N(C(=O)CC)c1ccc(-c2cncc(F)c2)nc1C(F)(F)F [Compound C44] ?
0

Thanks! And C#CCN(C(=O)CC)c1ccc(-c2cncc(F)c2)nc1C(F)(F)F [Compound C94] ?
0

Thanks! And CC(C)C(=O)N(CC(=O)N(C)C)c1ccc(-c2cncc(F)c2)nc1C(F)(F)F [Compound C107] ?
0

Thanks! And O=C1CCC(=O)N1c1ccc(-c2cncc(F)c2)nc1C(F)(F)F [Compound C67] ?
0

Thanks! And CC(C)C(=O)Nc1ccc(-c2cncc(C#N)c2)nc1C(F)(F)F [Compound C11] ?
0

Thanks! And C#CCN(C(=O)C(C)C)c1ccc(-c2cncc(F)c2)nc1C(F)(F)F [Compound C61] ?
0

---

Tested on: Setaria fabenr (SETFA)
Test: B1 Pre-emergence herbicidal activity
Assay type: in vivo
Parameters: key: 5=total damage to plant; 0=no damage to plant
Conditions: pre-emergence application, rate 1000 g/ha, evaluated after 13 days
Classify: true when Pre-emergence herbicidal activity, SETFA (damage score 0-5) is strictly less than 4; false when Pre-emergence herbicidal activity, SETFA (damage score 0-5) is not.

Bench note: check whether `C=CCN(C(=O)CC)c1ccc(-c2cncc(F)c2)nc1C(F)(F)F` shows Pre-emergence herbicidal activity, SETFA (damage score 0-5) below 4
false

Thanks! And `CCC(=O)N(CCSC)c1ccc(-c2cncc(F)c2)nc1C(F)(F)F` ?
true

Thanks! And `COCCN(C(=O)C(C)C)c1ccc(-c2cncc(F)c2)nc1C(F)(F)F` ?
true

Thanks! And `O=C(c1ccccc1)N(CC1CC1)c1ccc(-c2cncc(F)c2)nc1C(F)(F)F` ?
true

Thanks! And `CCN(CC)CCCN(C(=O)C(C)C)c1ccc(-c2cncc(F)c2)nc1C(F)(F)F` ?
false

Thanks! And `O=C(Nc1ccc(-c2cncc(F)c2)nc1C(F)(F)F)C1CCC1` ?
false

Thanks! And `COCC(=O)N(COCC(C)(C)C)c1ccc(-c2cncc(F)c2)nc1C(F)(F)F` ?
false

Thanks! And `CCC(=O)N(CC(=O)N(C)C)c1ccc(-c2cncc(F)c2)nc1C(F)(F)F` ?
false

Thanks! And `Cc1ccc(C(=O)Nc2ccc(-c3cncc(F)c3)nc2C(F)(F)F)cc1` ?
false

Thanks! And `O=C(Nc1ccc(-c2cncnc2)nc1C(F)(F)F)C(Cl)(Cl)Cl` ?
false

Thanks! And `CCN(CC)CCCN(C(=O)c1ccccc1)c1ccc(-c2cncc(F)c2)nc1C(F)(F)F` ?
true

Thanks! And `O=C(O)CCC(=O)Nc1ccc(-c2cncc(F)c2)nc1C(F)(F)F` ?
false

---

Provide the reported Pre-emergence herbicidal activity, SETFA (damage score 0-5) of each item.
Tested on: Setaria fabenr (SETFA)
Assay: B1 Pre-emergence herbicidal activity
Format: in vivo
Set-up: key: 5=total damage to plant; 0=no damage to plant
Details: pre-emergence application, rate 1000 g/ha, evaluated after 13 days

Report Pre-emergence herbicidal activity, SETFA (damage score 0-5) for `O=C(Nc1ccc(-c2cncc(F)c2)nc1C(F)(F)F)C1CCCC1` tested on Setaria fabenr (SETFA).
5

Thanks! And `CC(C)(C)C(=O)Nc1ccc(-c2cncc(F)c2)nc1C(F)(F)F` ?
5

Thanks! And `CCC(=O)N(C)c1ccc(-c2cncc(F)c2)nc1C(F)(F)F` ?
5

Thanks! And `O=C(Nc1ccc(-c2cncnc2)nc1C(F)(F)F)c1ccccc1` ?
5

Thanks! And `C=CCN(C(=O)COC)c1ccc(-c2cncc(F)c2)nc1C(F)(F)F` ?
4

Thanks! And `CC(C)C(=O)N(COCC(C)(C)C)c1ccc(-c2cncc(F)c2)nc1C(F)(F)F` ?
4

Thanks! And `O=C(CC(F)(F)F)Nc1ccc(-c2cncc(F)c2)nc1C(F)(F)F` ?
4

Thanks! And `Cc1ccsc1C(=O)Nc1ccc(-c2cncc(F)c2)nc1C(F)(F)F` ?
4

Thanks! And `O=C(Nc1ccc(-c2cncc(F)c2)nc1C(F)(F)F)C1CC1` ?
5

---

Tested on: Setaria fabenr (SETFA)
Assay: B1 Pre-emergence herbicidal activity
Type: in vivo
Settings: pre-emergence application, rate 1000 g/ha, evaluated after 13 days
PROPERTY LABEL: Pre-emergence herbicidal activity, SETFA (damage score 0-5)
Give the figure only, with no unit attached.

Which Pre-emergence herbicidal activity, SETFA (damage score 0-5) reading was recorded for the molecule O=C(Nc1ccc(-c2cncc(F)c2)nc1C(F)(F)F)c1cccnc1 [Compound C50] ?
4

Thanks! And CC(C)C(=O)N(C)c1ccc(-c2cncc(F)c2)nc1C(F)(F)F [Compound C4] ?
1

Thanks! And O=C(Nc1ccc(-c2cncc(F)c2)nc1C(F)(F)F)c1ccccc1 [Compound C14] ?
4

Thanks! And CC(C)C(=O)Nc1ccc(-c2cncnc2)nc1C(F)(F)F [Compound C8] ?
5

Thanks! And O=C(c1ccccc1)N(Cc1cnc(Cl)s1)c1ccc(-c2cncc(F)c2)nc1C(F)(F)F [Compound C78] ?
2

The origin of these recorded values is patent US11230538B2.
